# STUDY SYSTEM: BSA (UniProt P02769)
# Sequence (P02769 25-607 limits assumed): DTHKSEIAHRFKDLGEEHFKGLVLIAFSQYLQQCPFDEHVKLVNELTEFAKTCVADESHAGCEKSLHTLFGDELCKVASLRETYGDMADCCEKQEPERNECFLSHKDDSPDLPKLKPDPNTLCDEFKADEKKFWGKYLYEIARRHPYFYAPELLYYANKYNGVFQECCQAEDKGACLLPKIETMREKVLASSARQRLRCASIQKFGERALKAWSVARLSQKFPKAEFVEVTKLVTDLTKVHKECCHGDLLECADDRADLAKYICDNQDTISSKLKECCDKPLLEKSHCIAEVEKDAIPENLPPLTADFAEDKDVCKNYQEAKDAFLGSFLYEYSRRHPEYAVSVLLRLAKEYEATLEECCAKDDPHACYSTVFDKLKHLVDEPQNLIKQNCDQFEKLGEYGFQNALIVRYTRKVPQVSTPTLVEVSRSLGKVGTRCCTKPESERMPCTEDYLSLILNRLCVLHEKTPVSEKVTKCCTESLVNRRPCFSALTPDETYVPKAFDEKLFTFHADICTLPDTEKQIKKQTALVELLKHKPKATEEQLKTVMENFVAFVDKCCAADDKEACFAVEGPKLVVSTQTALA
# PROCEDURE TEXT: ELISA, BSA coated (control), E. coli supernatant, anti-VHH-HRP
This section presents binders with their documented OD Value Obtained after Binding to BSA values.

BINDER	UNIT	OD Value Obtained after Binding to BSA
B3-H7 (VHH) VHH: EVQVVESGGGLVQAGGSLRLSCAASGSTAINSVAGWYRQAPGKQRELVAGISNIGDTRYADSVKGRFTISRDNAKKTVYLQMNSLKSEDTAVYYCYAKYWARDYWGQGTQVTVSS	OD 450 nm	0.056
B1-G3 (VHH) VHH: EVQVVESGGGLVQPGGSLRLSCVASMPSGISFSNRGMAWYRQAPGKQRELVAAIDSAGSTRYQDSVKGRFTISRDNAKNTVFLQMNSLKPEDTAVYYCNQPAFKAWGQGTQVTVSS	OD 450 nm	0.067
B1-G8 (VHH) VHH: QVQLVESGGGLVQTGDSLRLSCVAPGISFSNRGMAWYRQAPGKQRELVAAIDSAGSQRYAGSVKDRFTISRDNAKNTVFLQMNSLKPEDTAVYYCNQPRFNLWGQGTQVTVSS	OD 450 nm	0.065
B1-H9 (VHH) VHH: EVQLVESGGDLVQAGGSLRLSCAASGSTFSSTIAGWYRQAPGKQRELVAGISNIGDTRYADSVKGRFTISRDNAKKTVYLQMNSLKPEDTAVYYCYAKYWARDYWGQGTQVTVSS	OD 450 nm	0.058
B4-C11 (VHH) VHH: QVQLVESGGGLVQAGGSLRLSCAASGSTFSNVVAGWYRQAPGKQRELVAGISNIGDTRYADSVKGRFTISRDNAKKAVYLQMNSLKPEDTAVYYCYAKYWARDYWGQGTQVTVSS	OD 450 nm	0.071
B2-F10 (VHH) VHH: QVQLVESGGGLVQAGGSLRLSCGASGSAVSITLMAWYRQAPGKQRELVAGISNIGDTNYVDSVKDRFTISRINAKNAMYLQMNSLKPEDTAVYYCFAQDWGGHHYWGQGTQVTVSS	OD 450 nm	0.063
